Recorded values, source the GenesisPotency data set.

Assay: Schistosoma Mansoni Peroxiredoxins (Prx2)
Among all 65,000 compounds or so, about 45 (0.07%) were called active. The call rests on the fitted dose curve. The full list was thinned out, with actives kept by preference.
The categories you may choose from are yes (1) for active, no (0) for inactive

Outcome logged for c1ccc(Cc2nn3c(C4COc5ccccc5O4)nnc3s2)cc1 (stereo unspecified) in this assay:
no (0)

Outcome logged for CCC(=O)Oc1ccc2c(C)c(Cl)c(=O)oc2c1 in this assay:
yes (1)

Outcome logged for O=C1c2ccccc2C(=O)N1CCCCn1c(=O)oc2ccccc21 in this assay:
no (0)

Outcome logged for COc1ccc(S(=O)(=O)N(Cc2cc3ccc(OC)cc3[nH]c2=O)CC2COCCO2)cc1 (stereo unspecified) in this assay:
yes (1)

Outcome logged for CN(C)c1oc(-c2ccccc2Cl)nc1C#N in this assay:
yes (1)

Outcome logged for O=C(/N=C1\NC(=O)C(F)(C(F)(F)F)S1)NC1CCCCC1 (stereo unspecified) in this assay:
yes (1)
